STUDY TARGET: Delta-type opioid receptor (Rattus norvegicus, UniProt P33533)
Sequence (P33533 whole entry): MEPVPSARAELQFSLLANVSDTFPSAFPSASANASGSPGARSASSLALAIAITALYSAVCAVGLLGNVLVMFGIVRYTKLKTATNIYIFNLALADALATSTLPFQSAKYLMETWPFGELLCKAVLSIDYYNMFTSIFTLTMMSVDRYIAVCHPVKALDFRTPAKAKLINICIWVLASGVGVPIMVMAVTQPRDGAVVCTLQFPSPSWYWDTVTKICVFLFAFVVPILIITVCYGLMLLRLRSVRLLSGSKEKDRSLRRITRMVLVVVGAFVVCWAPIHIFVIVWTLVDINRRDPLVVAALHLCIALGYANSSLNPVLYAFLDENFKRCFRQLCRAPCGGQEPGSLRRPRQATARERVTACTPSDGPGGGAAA
EXPERIMENTAL DETAILS: Ability to displace [3H]DADLE from Opioid receptor delta 1 of rat brain
pKi: −log10 of the molar value.
Listed below: pKi values for each entry.
ENDPOINT: pKi

[[record]]
compound = "CC1CN(CCCc2ccccc2)C2C[C@H](N)CC1(c1cccc(O)c1)C2 (single isomer, unassigned; (-))"
numeric_readout = 7.83

[[record]]
compound = "CC1CN(CCCc2ccccc2)C2C[C@H](N)CC1(c1cccc(O)c1)C2 (single isomer, unassigned; (+))"
numeric_readout = 6.61


----------
pKi: −log10 of the molar value.
Lab note: pKi readings collected with Kappa-type opioid receptor (Cavia porcellus) for the following compounds.
Sequence (P41144 whole entry): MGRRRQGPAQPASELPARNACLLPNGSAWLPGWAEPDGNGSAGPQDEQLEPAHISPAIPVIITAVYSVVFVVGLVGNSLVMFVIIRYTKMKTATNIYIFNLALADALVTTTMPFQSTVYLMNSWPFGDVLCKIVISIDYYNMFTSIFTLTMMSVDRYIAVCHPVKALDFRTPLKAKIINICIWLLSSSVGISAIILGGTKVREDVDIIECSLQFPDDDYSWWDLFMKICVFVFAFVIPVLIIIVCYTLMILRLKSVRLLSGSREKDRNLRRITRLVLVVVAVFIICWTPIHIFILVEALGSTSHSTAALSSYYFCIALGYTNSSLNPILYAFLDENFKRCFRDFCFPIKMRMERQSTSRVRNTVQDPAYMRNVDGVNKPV
ENDPOINT: pKi

[[record]]
compound = "CC1CN(CCCc2ccccc2)C2C[C@H](N)CC1(c1cccc(O)c1)C2 (single isomer, unassigned; (-))"
study_target = "Kappa-type opioid receptor (Cavia porcellus)"
endpoint = "pKi"
numeric_readout = 6.91

[[record]]
compound = "CC1CN(CCCc2ccccc2)C2C[C@H](N)CC1(c1cccc(O)c1)C2 (single isomer, unassigned; (+))"
study_target = "Kappa-type opioid receptor (Cavia porcellus)"
endpoint = "pKi"
numeric_readout = 6.05

